B1: SMG5 (parent)
chain: FVSIAQSEQESLLQQAQAQFRMAQ

Variants of: B1
Assay: protein stability index of a GFP-peptide fusion (GPS, HEK-293T) (PSI 1-6); higher = more stable;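 also: lentivirally expressed fusions sorted by FACS into six bins by GFP to DsRed ratio, PSI derived from sequencing read proportions per bin multiplied by bin number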
Conditions: c terminus: a fixed tail appended
QUANTITY KIND: protein stability index
Output spec: single numeric token, no unit.

{"columns": ["VARIANT DESCRIPTOR", "ASSAY VALUE"],
 "data": [
  ["A18L", 2.14]
]}

Task item: Name the recorded protein stability index for `S11N` .
Reply: 2.17

Task item: Field request: protein stability index | item: `I4N`
Reply: 2.49

Task item: Query (variant): `E10S` ; field requested: protein stability index
Reply: 1.61
